Test system: UACC-257
Experiment: NCI tumour cell line growth inhibition, 48 h
Activity calls are given as the source filed them. Cut-off read from the data, not from the text of the source: active = GI50 up to about 1.1 µM and inactive = higher.
API: response.call in active, inactive

[
  {
    "compound": "COc1cc2c(cc1OC)C1CCc3ccccc3CN1CC2 (stereo not given)",
    "classification": "inactive"
  },
  {
    "compound": "CSc1nnc(COc2ccc(Cl)cc2)o1",
    "classification": "inactive"
  },
  {
    "compound": "CCC(C)(C)n1c(C)nc2c1C(=O)c1ccccc1C2=O",
    "classification": "inactive"
  },
  {
    "compound": "COC(CNC(=O)CNC(=O)c1ccc(C(F)(F)F)cc1)OC",
    "classification": "inactive"
  },
  {
    "compound": "O=CC(O)C(O)C(O)C1CNC(=S)O1 (stereo not given)",
    "classification": "inactive"
  },
  {
    "compound": "COC(=O)C1(Cc2ccccc2C)Cc2ccc(C)cc2C1=O (stereo not given)",
    "classification": "inactive"
  },
  {
    "compound": "C=CCc1cccc2cc(C(=O)Nc3ccccc3)c(=N)oc12",
    "classification": "inactive"
  },
  {
    "compound": "COC1/C=C/C(C)C(C(C)C(OC)C(C)CCC(=O)C(C)C(C/C=C/N(C)C=O)OC)OC(=O)/C=C/C=C(\\C)CC(OC)CC2=CC(=O)O[C@H](C2)C(C)C(OC)CC(OC)/C=C/C(C)C(OC)C1 (stereo not given in full)",
    "classification": "active"
  }
]

Test call, this compound: CN(C)CCCNc1c2c(nc3ccc(Cl)cc13)CCCC2
inactive

Test call, this compound: CC1(C)CCCCCC(C)(CCCCCCCCCCCO)C1=O (stereo not given)
inactive

Test call, this compound: Nc1nc(=O)c(/N=N/c2ccccc2)c(C(=O)O)[nH]1
inactive

Test call, this compound: CC(C)OC(=O)[C@@H]1OC(C)(C)O[C@H]1C(=O)OC(C)C
inactive

Test call, this compound: COC(=O)C1(C(=O)OC)Cc2ccc(C)cc2C2=C1C(=O)c1ccccc1C2=O
inactive

Data origin, for the record: ChEMBL document CHEMBL1201862
